Recorded pKi for the following molecules
TARGET OR TEST SYSTEM: Capsid scaffolding protein (Human cytomegalovirus (strain AD169) (HHV-5) (Human herpesvirus 5), UniProt P16753)
Sequence (P16753 1-256 limits assumed): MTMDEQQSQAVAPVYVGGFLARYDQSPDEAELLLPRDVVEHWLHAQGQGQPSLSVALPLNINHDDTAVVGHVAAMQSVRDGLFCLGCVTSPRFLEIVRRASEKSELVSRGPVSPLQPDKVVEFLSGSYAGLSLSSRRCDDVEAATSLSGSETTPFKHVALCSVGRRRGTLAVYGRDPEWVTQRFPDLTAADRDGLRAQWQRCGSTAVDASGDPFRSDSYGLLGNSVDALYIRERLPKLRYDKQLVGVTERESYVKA
METHOD: Potency against human cytomegalovirus protease in HCMV pNA assay
Parameters: species or system Human herpesvirus 5 strain AD169
Schema: pKi number; meaning minus log10 of the concentration expressed in molar units.

Sample records with pKi:
GET /value?item= C[C@@H]1C(=O)N(C(=O)C2CC2)[C@H]2CCN(C(=O)[C@@H]3CCCN3C(=O)c3ccc(-c4ccccc4)cc3)[C@H]12 &field=pKi returns 7.68

Noted for CC(C)c1ccc(NC(=O)N2CCC[C@H]2C(=O)N2CC[C@H]3[C@H]2[C@H](C)C(=O)N3C(=O)[C@@H]2[C@H](C)[C@@H]2C)cc1 : its pKi reads 7.80

In plain terms, C[C@@H]1C(=O)N(C(=O)C2CC2)[C@H]2CCN(C(=O)[C@@H]3CCCN3S(=O)(=O)c3ccc4ccccc4c3)[C@H]12 has a documented pKi of 7.40

Noted for C[C@@H]1C(=O)N(C(=O)C2CC2)[C@H]2CCN(C(=O)[C@@H]3CCCN3C(=O)Nc3ccc(Cl)cc3)[C@H]12 : its pKi reads 7.42

Record summary for CC(C)Oc1ccc(S(=O)(=O)N2CCC[C@H]2C(=O)N2CC[C@H]3[C@H]2[C@H](C)C(=O)N3C(=O)C2CC2)cc1 : reported pKi = 7.41

Further cases:
Kindly note the recorded pKi for C[C@@H]1C(=O)N(C(=O)C2CC2)[C@H]2CCN(C(=O)[C@@H]3CCCN3C(=O)Nc3ccc(C(F)(F)F)cc3)[C@H]12 , which is 7.82

Measured pKi of C[C@@H]1C(=O)N(C(=O)C2CC2)[C@H]2CCN(C(=O)[C@@H]3CCCN3S(=O)(=O)c3cccc4ccccc34)[C@H]12 : 7.22
